Catalogue of binders with associated fold (off-rate vs DLLBII101G08)
target: T1, recombinant mouse DLL4 (C-terminally His-tagged extracellular domain, R&D Systems) (mouse, UniProt Q9JI71 27-532); experiment: ProteOn off-rate screen, periplasmic extract, coated mouse DLL4
T1 construct: extracellular domain; also called rmDLL4; mDLL4
T1 sequence (Q9JI71 27-532): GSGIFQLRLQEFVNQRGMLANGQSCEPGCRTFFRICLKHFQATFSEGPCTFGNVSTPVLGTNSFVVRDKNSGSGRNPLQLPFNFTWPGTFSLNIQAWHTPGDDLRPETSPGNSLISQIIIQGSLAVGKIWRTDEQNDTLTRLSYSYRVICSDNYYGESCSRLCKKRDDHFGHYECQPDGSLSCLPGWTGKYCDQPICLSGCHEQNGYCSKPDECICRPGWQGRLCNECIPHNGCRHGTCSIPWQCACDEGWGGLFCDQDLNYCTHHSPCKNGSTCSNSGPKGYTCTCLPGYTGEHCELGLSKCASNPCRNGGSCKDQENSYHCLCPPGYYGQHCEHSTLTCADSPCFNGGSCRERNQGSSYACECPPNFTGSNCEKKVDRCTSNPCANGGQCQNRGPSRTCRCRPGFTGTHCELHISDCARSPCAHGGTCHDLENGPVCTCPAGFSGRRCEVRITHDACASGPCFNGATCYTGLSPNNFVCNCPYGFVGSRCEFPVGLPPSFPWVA
Reply with just the number (in fold).

Illustrative cases are given below, each with its answer.
• DLLBII129E07 (VHH) VHH: EVQLVESGGGLVQAGGSLRLSCSASGRTFSSYAMAWYRQAPGKEREYVAAIRWSGGTAYYPDSVQGRFTISRDNAKNTVYLQMNSLKPEDTAVYYCANRAPDTRLAPYEYDHWGQGTQVTVSS = 24
• DLLBII129B05 (VHH, not shown: small tags and cut ends) VHH: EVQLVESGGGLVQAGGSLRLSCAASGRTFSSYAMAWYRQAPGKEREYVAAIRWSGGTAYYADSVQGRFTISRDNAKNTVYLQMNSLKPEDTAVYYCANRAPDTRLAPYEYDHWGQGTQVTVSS = 20
• DLLBII129H07 (VHH, not shown: small tags and cut ends) VHH: EVQLVESGGGLVQAGGSLRLSCAASGRTFSSYAMAWYRQAPGKEREYVAAIRWSGGTAYYADSVQGRFTISRDNAKNTVYLQMNSLKPEDTAVYYCANRAPDTRLEPYEYDYWGQGTQVTVSS = 27

Kindly consider the entry below.
GET /value?item= DLLBII129H04 (VHH) VHH: EVQLVESRGGLVQAGGSLRLSCAASGRTFSSYAMAWFRQAPGKEREYVAAIRWSGGTAYYADSVQGRFTISRDNAKNTVYLQMNSLKPEDTAVYYCANRAPDTRLEPYLYDHWGQGTQVTVSS &field=fold (off-rate vs DLLBII101G08) returns 27
